- Tested on: HepG2-CANX-COX4
- TEST_PROTOCOL: lowest phenotypically active concentration; higher = less potent
- CONDITION_DESCRIPTION: treatment time: 24 h
Structures can show the parent of a compound that is named as a salt.
READOUT_LABEL: lowest phenotypically active concentration (µM)
Supply the numeric figure in µM, leaving out any unit text.

Here's what some known entries look like.
N#CC(C#N)=NNc1cccc(Cl)c1 :: 9
C[C@]12CC[C@H]3[C@@H](CCC4=CC(=O)CC[C@@]43C)[C@@H]1CC[C@@H]2O :: 3
CC(C)(C)c1cc(C=C(C#N)C#N)cc(C(C)(C)C)c1O :: 1

Could you tell me which lowest phenotypically active concentration is on file for COc1ccc(N(C(=O)Oc2c(C)cccc2C)c2ccnc(Nc3ccc(N4CCN(C)CC4)cc3)n2)c(OC)c1 ?
1

Recorded lowest phenotypically active concentration for CCn1cnc2c(Nc3cccc(Cl)c3)nc(N[C@H]3CCCC[C@H]3N)nc21 , please?
1

Fill in the blank: the reported lowest phenotypically active concentration of CC[C@]12C=CCN3CC[C@]4(C(=C(C(=O)OC)C1)Nc1ccccc14)[C@@H]32 [Tabersonine dichlorhydrate] is ____.
9

Report lowest phenotypically active concentration for C=C1[C@@H](C)[C@H]2[C@H](Cc3ccccc3)NC(=O)[C@]23OC(=O)C=C[C@H](O)CCC[C@@H](C)CC=C[C@H]3[C@@H]1O please.
1

Which lowest phenotypically active concentration value belongs to CN1C[C@H](C(=O)N[C@]2(C)O[C@@]3(O)[C@@H]4CCCN4C(=O)[C@H](Cc4ccccc4)N3C2=O)C=C2c3cccc4[nH]cc(c34)C[C@H]21 ?
3

May I ask what lowest phenotypically active concentration has been recorded for CC[C@@H](C(=O)[C@@H](C)[C@@H](O)[C@H](C)[C@@H]1O[C@@H]([C@@H](CC)C(=O)O)CC[C@@H]1C)[C@H]1O[C@]2(C=C[C@@H](O)[C@]3(CC[C@@](C)([C@H]4CC[C@](O)(CC)[C@H](C)O4)O3)O2)[C@H](C)C[C@@H]1C [Salinomycin Sodium] ?
1

Name the recorded lowest phenotypically active concentration for CN1CCC2=C[C@H](O)[C@H]3OC(=O)c4cc5c(cc4[C@H]3[C@@H]21)OCO5 [Hippeastrine hydrobromide] .
9

Please look up its lowest phenotypically active concentration: Cc1cc2c(C(C)C)c(O)c(O)c(C=O)c2c(O)c1-c1c(C)cc2c(C(C)C)c(O)c(O)c(C=O)c2c1O
9
